# Experiment Description: compound fluorescence in toxin protease inhibitor counterscreen, primary screen, artefact control for toxin protease inhibitor project, biochemical, multiplex microsphere, HTS (AID 624483)
# Condition: compound autofluorescence counterscreen, microsphere flow cytometry; stronger effect = higher value
In all, about 360,000 compounds went through this assay and about 11,000 (3.1%) were called active. About 2% were inconclusive and are not listed. Only a selection was taken, and actives are over-represented in it overall.
Measurement Kind: fluorescence intensity
Could you respond with only the numeric value?

O=C(OC1CC2CC1[C@H]1CCCCN1C2=O)N1CCOCC1 (stereo partly specified)	5270
O=C(NCCCN1CCCCCC1)c1ccc(N2CCCC2=O)cc1	3260
N=c1c2c3c(sc2nc2n1CCCCC2)CCCC3	2860

What measured fluorescence intensity goes with c1nnc2c3c4c(sc3ncn12)CCC4 ?
23300

Request: COc1ccccc1C1=CC(=O)CCC1
3790

Request: Cc1nn(-c2ccccc2)c(C)c1NC(=O)CCl
2020

Request: N=c1c2c3c(sc2ncn1N)CCCCC3
19400

Request: COc1ccc(NC(=O)C2(C)Cc3c(-c4cccc(NC(C)=O)c4)ccnc3O2)cc1OC (stereo unspecified)
3020

Request: COc1cccc(N(CC(=O)NC2CCCC2)C(=O)Cn2nnc(-c3ccc(C)cc3)n2)c1
20000

Request: O=C1c2ccccc2C(=O)N1CCCc1nc(-c2ccccc2)no1
21200

Request: COc1cccc(N(CC(=O)NC2CCCC2)C(=O)CCCC(=O)Nc2ccccn2)c1
6270
